Hello, the source for this data is ChEMBL document CHEMBL3046631, in case you need it.

Some compounds, each annotated with its measured LC70.
System: Laodelphax striatellus
Assay: Insecticidal activity against 1 to 3 day-old adult Laodelphax striatella (small brown planthopper) infested compound-treated rice seedlings assessed as mortality measured after 3 days
Format: functional

COMPOUND	LC70
CS/C(=C\[N+](=O)[O-])N(C)CC1CCOC1 (racemic)	>1000 ppm
O=C(N/C(=N\[N+](=O)[O-])NCC1CCOC1)c1ccccc1 (racemic)	>1000 ppm
CC(=O)N/C(=N\[N+](=O)[O-])NCC1CCOC1 (racemic)	>1000 ppm

---

Some molecules, each annotated with its measured LC70.
Tested on: Laodelphax striatellus
Test: Insecticidal activity against 1 to 3 day-old adult Laodelphax striatella (small brown planthopper) infested compound-treated rice seedlings assessed as mortality measured after 3 days
Type: functional

MOLECULE	LC70
N/C(=N\[N+](=O)[O-])NCC1CCOC1 (racemic)	>1000 ppm
CS/C(=N\[N+](=O)[O-])N(C)CC1CCOC1 (racemic)	>1000 ppm
CS/C(=C\[N+](=O)[O-])NCC1CCOC1 (racemic)	>1000 ppm
